target_under_test: T1, MHC class I allele A*0101 (bound via biotin to streptavidin-coated plate)
T1 construct: iTopia MHC class I monomer on the plate; placeholder peptide and b2M removed, then reconstituted with test peptide and fresh b2M; also called A1; HLA A1
experiment_description: iTopia peptide binding assay
property_measured: % of positive control peptide binding

The value of % of positive control peptide binding measured for the binder NRNLTEVPT (also called Peptide No 40) [5T4 9 mer peptide 40 NRNLTEVPT] turned out to be 1%

The value of % of positive control peptide binding measured for the binder AALLAGRAL [5T4 9 mer peptide 101 AALLAGRAL] turned out to be 1%

The value of % of positive control peptide binding measured for the binder FLTGNQLAV (also called Peptide No 49) [5T4 9 mer peptide 49 FLTGNQLAV] turned out to be 4%

The value of % of positive control peptide binding measured for the binder SSSPTSSAS (also called Peptide No 16) [5T4 9 mer peptide 16 SSSPTSSAS] turned out to be 4%

The value of % of positive control peptide binding measured for the binder AFEHLPSLR (also called Peptide No 69) [5T4 9 mer peptide 69 AFEHLPSLR] turned out to be 1%

The value of % of positive control peptide binding measured for the binder RLDEVRAGA (also called Peptide No 65) [5T4 9 mer peptide 65 RLDEVRAGA] turned out to be 4%

The value of % of positive control peptide binding measured for the binder RDVLAQLPS [5T4 9 mer peptide 114 RDVLAQLPS] turned out to be 1%

The value of % of positive control peptide binding measured for the binder PALCECSEA (also called Peptide No 32) [5T4 9 mer peptide 32 PALCECSEA] turned out to be 4%

The value of % of positive control peptide binding measured for the binder LPAYVRNLF (also called Peptide No 45) [5T4 9 mer peptide 45 LPAYVRNLF] turned out to be 7%

The value of % of positive control peptide binding measured for the binder SLRQLDLSH (also called Peptide No 72) [5T4 9 mer peptide 72 SLRQLDLSH] turned out to be 0%

The value of % of positive control peptide binding measured for the binder LPSLRQLDL (also called Peptide No 71) [5T4 9 mer peptide 71 LPSLRQLDL] turned out to be 0%

The value of % of positive control peptide binding measured for the binder RRPPLAELA (also called Peptide No 57) [5T4 9 mer peptide 57 RRPPLAELA] turned out to be 2%

The value of % of positive control peptide binding measured for the binder AALNLSGSR (also called Peptide No 61) [5T4 9 mer peptide 61 AALNLSGSR] turned out to be 3%

The value of % of positive control peptide binding measured for the binder GMVVAALLA (also called Peptide No 99) [5T4 9 mer peptide 99 GMVVAALLA] turned out to be 0%
